# Tested on: PC-3 prostate
# METHOD DESCRIPTION: NCI tumour cell line growth inhibition, 48 h
OBSERVED PROPERTY: log10 of TGI (log10 of the value in µM)
Reminder: these figures are log10 of reported TGI, in µM before transformation.

Cc1nc2ccc(NCCN(C)C)c3c(=O)c4ccccc4n1c23 = 0.94
CN(C)S(=O)(=O)c1ccc2[nH]c(O)c(C3=Nc4ccccc4C3=O)c2c1 = 1.96
CCOC(=O)Cc1c(C(=O)OCC)[n+](=O)c2cc(Cl)c(Cl)cc2n1[O-] = 0.67
COc1cc(N=Nc2cc(Cc3ccc(N(C)C)cc3)c(N)cc2N(C)C)c2ncccc2c1 = 0.48
NCCCN(CCCCN(CCCN)CCCc1ccccc1)CCCc1ccccc1 = 1.09

Prompt: Form field: reported log10 of TGI of `COc1ccc2nc3ccccc3c(NCCNCCO)c2c1`
Response: 0.58

Prompt: Again, but for `O=C(Nc1cccc(-n2ccc3c(NC(=O)c4ccccc4)ncnc32)c1)Nc1ccc(Cl)c(C(F)(F)F)c1`
Response: 0.77

Prompt: Again, but for `COc1cc(-c2nc(-c3ccccc3)c(-c3ccccc3)[nH]2)cc(OC)c1O`
Response: 1.70

Prompt: Again, but for COc1cccc(C2CC(=O)Nc3c2c(C)nn3-c2nc3ccccc3[nH]2)c1OC (configuration not stated)
Response: 1.78
